Molecular target: human cloned CHRM3 receptor (Homo sapiens)
Construct: expressed in transfected cells; host or cells: CHO-K1 (M3_CHO)
Sequence (P20309 whole entry): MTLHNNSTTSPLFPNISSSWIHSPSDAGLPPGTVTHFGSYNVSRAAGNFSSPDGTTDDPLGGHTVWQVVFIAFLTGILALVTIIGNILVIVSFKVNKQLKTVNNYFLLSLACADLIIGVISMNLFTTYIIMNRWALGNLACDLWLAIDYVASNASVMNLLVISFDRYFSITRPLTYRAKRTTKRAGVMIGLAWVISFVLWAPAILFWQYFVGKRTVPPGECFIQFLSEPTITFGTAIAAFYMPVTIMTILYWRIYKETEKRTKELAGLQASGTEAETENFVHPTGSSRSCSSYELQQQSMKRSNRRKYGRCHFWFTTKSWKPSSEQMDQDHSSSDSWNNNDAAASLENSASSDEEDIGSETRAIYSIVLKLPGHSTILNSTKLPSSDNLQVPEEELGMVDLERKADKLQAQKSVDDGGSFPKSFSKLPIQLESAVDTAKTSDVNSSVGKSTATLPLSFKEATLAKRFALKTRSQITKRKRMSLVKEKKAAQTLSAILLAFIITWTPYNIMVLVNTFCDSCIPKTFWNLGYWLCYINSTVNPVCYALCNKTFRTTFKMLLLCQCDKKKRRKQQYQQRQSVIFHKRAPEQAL
Assay: CHRM3 Ca++ Flux Assay (M3_CHO cells, agonist mode)
Format: cell-based
Conditions: Percent Activity (PA) measured to EC100 of Carbachol, read-out: M3 FDSS PA %
Procedure: The above examples were characterized by measuring the intracellular mobilization of Ca^++ ions caused by signaling events mediated by the receptor. […] Prior to the day of the assay, stable M3_CHO or M5_CHO cells were thawed and plated on Greiner 384 well black TC treated plates at 12K cells/well in F12/DMEM supplemented with 10% FBS (Hyclone) and kept overnight in a humidified atmosphere (5% CO2) at 37° C. […] The Percent Activity (PA) was measured to EC100 of Carbachol. […]
PROPERTY_NAME: Emax (%)
Answers are plain numbers, in %.

Fc1cc(F)c(OC2CC3(COC3)C2)c(C2CCN([C@@H]3COC4(C3)CN(c3nnco3)C4)CC2)c1 [Example 2AA] ... 0
Fc1ccc(O[C@H]2CCOC2)c(C2CCN([C@@H]3COC4(C3)CN(c3nnco3)C4)CC2)c1 [Example 1H] ... 0
Fc1ccc(OC[C@H]2CCOC2)c(C2CCN([C@@H]3COC4(C3)CN(c3nncs3)C4)CC2)c1 [Example 5X] ... 0
Fc1cc(F)c(OC2CCOCC2)c(C2CCN([C@@H]3COC4(C3)CN(c3nnco3)C4)CC2)c1 [Example 2BB] ... 0
c1ccc(C2CCN([C@@H]3COC4(C3)CN(c3nnco3)C4)CC2)c(C2CCOCC2)c1 [Example 3C] ... 0
Fc1ccc(OC2CC3(COC3)C2)c(C2CCN([C@@H]3COC4(C3)CN(c3ncon3)C4)CC2)c1 [Example 6C] ... 0
c1ccc(C2CCN([C@@H]3COC4(C3)CN(c3ncco3)C4)CC2)c(-c2cncnc2)c1 [Example 4R] ... 0
Fc1ccc(OC2CCOCC2)c(C2CCN([C@@H]3COC4(C3)CN(c3ncco3)C4)CC2)c1 [Example 4E] ... 0
c1ccc(C2CCN([C@@H]3COC4(C3)CN(c3nnco3)C4)CC2)c(O[C@@H]2CCOC2)c1 [Example 1O] ... 0

Here's the next entry for you.
Recorded Emax of Fc1ccc(OC[C@@H]2CCOC2)c(C2CCN([C@@H]3COC4(C3)CN(c3nncs3)C4)CC2)c1 [Example 5I] , please.
0
